molecular target: c-Src SH2; test: SH2 binding enrichment of the phosphorylated peptide, bacterial display (enrichment ratio); higher = better substrate or ligand; peptides without Tyr show the background;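 note: peptide library displayed on the E. coli surface as eCPX fusions, selected cells deep-sequenced, score is each peptide's frequency after selection divided by its frequency in the input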
assayReadout: SH2 binding enrichment

Below are worked cases with known answers.
residueString	endpointResult
GPKSTYISSAA [GOLGA5_Y62]	0.403
WGLRSYFETSK [MAGED2_Y448_YF]	0.882
ALKKPYGVLYK [RPF2_Y59]	1.38
ESFCLYPPVPQ [CYP4B1_Y377_R375C]	0.56
EKFVPYYDLFM [IPO5_Y530]	3.84

[a] PICEGYALPHA [ACTC1_Y171_Y168C]
[b] MENFIYESMQF [CYP19A1_Y361_R365Q_YF]
Ask: Out of a and b , name the one with the higher SH2 binding enrichment. Refer to your chosen item by its label in the answer.
Reply: a

====

molecular target: Fyn (UniProt P06241); test: phosphorylation enrichment, bacterial display (enrichment ratio); higher = better substrate or ligand; peptides without Tyr show the background
Sequence (P06241 whole entry, looked up): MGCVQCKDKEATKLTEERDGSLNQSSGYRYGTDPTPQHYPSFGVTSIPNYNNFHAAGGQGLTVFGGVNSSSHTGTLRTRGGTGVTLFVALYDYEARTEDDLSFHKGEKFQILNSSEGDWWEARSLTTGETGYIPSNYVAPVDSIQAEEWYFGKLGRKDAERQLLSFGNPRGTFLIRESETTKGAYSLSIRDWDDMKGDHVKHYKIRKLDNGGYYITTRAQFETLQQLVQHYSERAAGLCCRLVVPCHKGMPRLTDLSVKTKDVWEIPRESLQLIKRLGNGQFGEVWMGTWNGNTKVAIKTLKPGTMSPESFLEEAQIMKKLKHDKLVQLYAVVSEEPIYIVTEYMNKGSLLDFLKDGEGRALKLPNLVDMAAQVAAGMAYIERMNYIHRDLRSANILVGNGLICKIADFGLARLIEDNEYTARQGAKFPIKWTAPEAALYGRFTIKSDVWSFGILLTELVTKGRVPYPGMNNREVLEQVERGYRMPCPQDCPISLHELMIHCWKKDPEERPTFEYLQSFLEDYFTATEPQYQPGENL
assayReadout: phosphorylation enrichment
Enter a number only.

Below are worked cases with known answers.
residueString	targetSystem	phosphorylation enrichment
GKTQQYDCKWY [BCR_Y751]	Fyn (UniProt P06241)	0.441
STEAIYRRFSK [SH3PXD2B_Y42_YF]	Fyn (UniProt P06241)	0.506
QNWELYSEGLG [CNKSR1_Y665_R662W]	Fyn (UniProt P06241)	3.04
SVMAEYGLFGA [VSX2_Y219_YF]	Fyn (UniProt P06241)	7.22
WNNLDYMDSRR [GAA_Y407_D404N]	Fyn (UniProt P06241)	0.464
VFLARYGPAWR [CYP2D6_Y124]	Fyn (UniProt P06241)	0.434
DPKFHYDNTAG [KDR_Y1214]	Fyn (UniProt P06241)	0.524
VCHELYNTIRD [PBRM1_Y54]	Fyn (UniProt P06241)	0.718

Short answer for TLNFCYQQVKS [PTK2_Y148_F147C] : phosphorylation enrichment was 0.44

Short answer for CENNRYGMGTS [PDHA1_Y227] : phosphorylation enrichment was 0.518

Short answer for WISNRSLDFSS [PRPH2_Y184_Y184S] : phosphorylation enrichment was 0.401

Short answer for DLQDENDFKCK [STAT1_Y170_Y170N] : phosphorylation enrichment was 0.548

Short answer for FSPGSNERETF [NF1_Y2192_Y2192N] : phosphorylation enrichment was 0.484

Short answer for ETLLYYGYRRS [POR_Y564_C566Y] : phosphorylation enrichment was 9.27

====

biological target: FGFR3 (UniProt P22607); experiment: phosphorylation enrichment, bacterial display (enrichment ratio); higher = better substrate or ligand; peptides without Tyr show the background
Sequence (P22607 whole entry, looked up): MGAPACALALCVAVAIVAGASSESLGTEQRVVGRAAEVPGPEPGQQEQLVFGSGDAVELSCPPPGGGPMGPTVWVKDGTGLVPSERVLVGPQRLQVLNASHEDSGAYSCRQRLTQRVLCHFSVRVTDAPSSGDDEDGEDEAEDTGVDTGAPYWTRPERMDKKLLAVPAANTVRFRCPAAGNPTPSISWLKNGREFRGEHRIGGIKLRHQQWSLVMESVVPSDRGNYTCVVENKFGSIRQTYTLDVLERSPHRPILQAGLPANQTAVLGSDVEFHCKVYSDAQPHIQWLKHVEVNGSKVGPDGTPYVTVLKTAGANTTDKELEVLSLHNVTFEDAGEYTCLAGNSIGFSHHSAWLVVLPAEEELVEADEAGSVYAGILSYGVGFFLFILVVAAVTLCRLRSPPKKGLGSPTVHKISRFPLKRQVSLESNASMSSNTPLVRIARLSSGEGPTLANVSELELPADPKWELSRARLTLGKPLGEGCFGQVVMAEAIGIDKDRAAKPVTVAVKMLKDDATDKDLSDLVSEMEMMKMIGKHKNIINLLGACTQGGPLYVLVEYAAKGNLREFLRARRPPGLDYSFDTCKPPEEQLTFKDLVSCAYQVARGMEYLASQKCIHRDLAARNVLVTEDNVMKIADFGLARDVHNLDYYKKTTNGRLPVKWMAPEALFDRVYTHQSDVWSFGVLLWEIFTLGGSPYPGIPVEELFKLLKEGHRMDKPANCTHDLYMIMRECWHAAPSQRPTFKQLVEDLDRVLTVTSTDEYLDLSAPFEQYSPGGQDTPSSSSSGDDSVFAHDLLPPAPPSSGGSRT
assayReadout: phosphorylation enrichment
Enter a number only.

residueString	endpointResult
VKMLEYRGKDV [CASP5_Y74_L75R]	0.473
GDRPVYSEDEQ [CHST6_Y362_Y358D]	0.872
VRFMADTDETF [F8_Y450_Y450D]	0.755
PLRAFYLIARV [HLCS_Y635_D634Y_YF]	1.84
CTTIHYNFMCH [TP53_Y234_N239H_YF]	0.552
GIVEDYRPRFY [ACVRL1_Y421_P424R]	0.521

Tested system FGFR3 (UniProt P22607); phosphorylation enrichment recorded for MHDKEYYSVHN [MET_Y1234_Y1230H] was 2.08

Tested system FGFR3 (UniProt P22607); phosphorylation enrichment recorded for NGSKGYAYVHF [PABPC5_Y147] was 0.718

Tested system FGFR3 (UniProt P22607); phosphorylation enrichment recorded for FSLPAYMDRRD [COX4I1_Y38] was 0.622

Tested system FGFR3 (UniProt P22607); phosphorylation enrichment recorded for CTTIHSNFMCN [TP53_Y234_Y234S_YF] was 0.55

====

molecular target: EPHB2 (UniProt P29323); assay: phosphorylation enrichment, bacterial display (enrichment ratio); higher = better substrate or ligand; peptides without Tyr show the background
Sequence (P29323 whole entry, looked up): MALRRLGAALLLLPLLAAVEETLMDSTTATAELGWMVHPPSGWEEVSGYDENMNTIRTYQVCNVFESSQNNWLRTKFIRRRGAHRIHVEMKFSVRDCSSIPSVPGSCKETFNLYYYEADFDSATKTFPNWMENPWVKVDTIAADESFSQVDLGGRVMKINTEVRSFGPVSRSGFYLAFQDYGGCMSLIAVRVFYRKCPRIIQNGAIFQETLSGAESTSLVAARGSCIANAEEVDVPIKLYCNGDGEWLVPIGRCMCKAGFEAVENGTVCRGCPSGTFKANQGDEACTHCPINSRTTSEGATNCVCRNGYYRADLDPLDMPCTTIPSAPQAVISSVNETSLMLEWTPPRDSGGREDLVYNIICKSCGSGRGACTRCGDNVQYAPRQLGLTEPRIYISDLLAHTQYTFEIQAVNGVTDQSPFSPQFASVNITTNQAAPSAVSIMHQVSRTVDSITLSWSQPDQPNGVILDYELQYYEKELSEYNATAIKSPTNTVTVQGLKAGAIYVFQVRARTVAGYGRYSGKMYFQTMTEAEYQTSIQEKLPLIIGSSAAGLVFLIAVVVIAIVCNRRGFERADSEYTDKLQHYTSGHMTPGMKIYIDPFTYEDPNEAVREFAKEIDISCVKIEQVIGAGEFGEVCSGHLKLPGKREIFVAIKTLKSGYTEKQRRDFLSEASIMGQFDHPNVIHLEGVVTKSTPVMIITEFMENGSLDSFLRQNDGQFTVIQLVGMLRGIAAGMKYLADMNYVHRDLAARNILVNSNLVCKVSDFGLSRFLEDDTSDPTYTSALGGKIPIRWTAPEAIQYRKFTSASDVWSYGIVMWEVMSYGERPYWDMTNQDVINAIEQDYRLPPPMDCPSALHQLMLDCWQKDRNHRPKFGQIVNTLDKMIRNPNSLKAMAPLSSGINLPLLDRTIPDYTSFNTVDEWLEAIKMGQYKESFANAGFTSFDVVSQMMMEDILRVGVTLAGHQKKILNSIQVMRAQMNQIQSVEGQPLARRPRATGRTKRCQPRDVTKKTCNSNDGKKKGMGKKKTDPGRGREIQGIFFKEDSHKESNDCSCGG
Catalogue of phosphorylation enrichment readings, one per entry.
Enter a number only.

residueString	endpointResult
GMKIVYVYVKK [DNAI2_Y5_E2K]	0.594

Short answer for FPLELYERVRM [PRKCG_Y312_YF] : phosphorylation enrichment was 0.982

Short answer for MHDKEYYSVHN [MET_Y1234_Y1230H] : phosphorylation enrichment was 0.497

Short answer for HPYNSYTYPRL [PAK5_Y316_S312P] : phosphorylation enrichment was 0.531

Short answer for SECCKYKIDNP [OSMR_Y689] : phosphorylation enrichment was 0.416

Short answer for SVVVPYKPPEV [TP53_Y220_E221K] : phosphorylation enrichment was 0.461

Short answer for QNKEDYDGLKE [GSTO1_Y139_A140D] : phosphorylation enrichment was 1.04

Short answer for ADKSAYLMGPN [MYH7_Y386_L390P] : phosphorylation enrichment was 0.391

Short answer for EQAERYDDMAA [YWHAG_Y20] : phosphorylation enrichment was 0.51

Short answer for IKGNMYYENSY [EGFR_Y112_R108K] : phosphorylation enrichment was 0.583

====

biological target: EPHB1 (UniProt P54762); experiment: phosphorylation enrichment, bacterial display (enrichment ratio); higher = better substrate or ligand; peptides without Tyr show the background
Sequence (P54762 whole entry, looked up): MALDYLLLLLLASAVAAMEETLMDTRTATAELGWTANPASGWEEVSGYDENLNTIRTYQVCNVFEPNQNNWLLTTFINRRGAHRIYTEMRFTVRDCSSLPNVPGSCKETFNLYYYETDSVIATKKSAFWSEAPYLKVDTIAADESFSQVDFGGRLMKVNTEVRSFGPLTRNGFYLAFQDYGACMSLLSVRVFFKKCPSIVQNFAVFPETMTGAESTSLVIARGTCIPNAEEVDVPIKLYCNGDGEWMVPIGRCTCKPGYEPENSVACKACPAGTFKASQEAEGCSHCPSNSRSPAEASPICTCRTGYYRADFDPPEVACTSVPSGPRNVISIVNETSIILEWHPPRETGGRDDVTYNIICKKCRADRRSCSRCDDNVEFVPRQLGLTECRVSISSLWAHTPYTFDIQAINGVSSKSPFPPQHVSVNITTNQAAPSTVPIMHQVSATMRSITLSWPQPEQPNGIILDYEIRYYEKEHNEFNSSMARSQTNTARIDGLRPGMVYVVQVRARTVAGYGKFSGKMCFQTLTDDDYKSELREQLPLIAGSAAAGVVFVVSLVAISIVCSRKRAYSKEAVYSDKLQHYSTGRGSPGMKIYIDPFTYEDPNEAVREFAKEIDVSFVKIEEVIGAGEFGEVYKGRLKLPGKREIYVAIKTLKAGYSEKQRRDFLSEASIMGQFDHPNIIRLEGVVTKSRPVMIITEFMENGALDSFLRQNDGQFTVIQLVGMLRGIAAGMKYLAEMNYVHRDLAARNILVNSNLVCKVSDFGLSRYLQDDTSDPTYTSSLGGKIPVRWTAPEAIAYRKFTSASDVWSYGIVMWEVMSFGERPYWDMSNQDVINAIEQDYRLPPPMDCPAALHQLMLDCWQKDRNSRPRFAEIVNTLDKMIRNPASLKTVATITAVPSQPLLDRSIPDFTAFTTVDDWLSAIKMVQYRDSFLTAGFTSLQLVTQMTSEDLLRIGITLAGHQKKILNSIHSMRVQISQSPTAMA
Catalogue of phosphorylation enrichment readings, one per entry.
Enter a number only.

Below are worked cases with known answers.
residueString	phosphorylation enrichment
KEIHAYRKLLE [LMNA_Y376_M371K]	0.397
TESALYGCTVV [KIAA1804_Y724_L729V]	0.783
WKEIEYEVVRD [CPS1_Y634]	0.701
CYVYYYSYLLK [PTEN_Y178_R173C]	1.15
FPKVRYHWLVL [APTX_Y214_A212V_YF]	0.81
HKLSSYEFDFE [BTK_Y40_Y39S_YF]	0.902

Now for a further sequence.
Short answer for LLANAYIYDVQ [L1CAM_Y418_V421D] : phosphorylation enrichment was 1.46

====

target: Jak2 (UniProt O60674); experiment: phosphorylation enrichment, bacterial display (enrichment ratio); higher = better substrate or ligand; peptides without Tyr show the background
Sequence (O60674 whole entry, looked up): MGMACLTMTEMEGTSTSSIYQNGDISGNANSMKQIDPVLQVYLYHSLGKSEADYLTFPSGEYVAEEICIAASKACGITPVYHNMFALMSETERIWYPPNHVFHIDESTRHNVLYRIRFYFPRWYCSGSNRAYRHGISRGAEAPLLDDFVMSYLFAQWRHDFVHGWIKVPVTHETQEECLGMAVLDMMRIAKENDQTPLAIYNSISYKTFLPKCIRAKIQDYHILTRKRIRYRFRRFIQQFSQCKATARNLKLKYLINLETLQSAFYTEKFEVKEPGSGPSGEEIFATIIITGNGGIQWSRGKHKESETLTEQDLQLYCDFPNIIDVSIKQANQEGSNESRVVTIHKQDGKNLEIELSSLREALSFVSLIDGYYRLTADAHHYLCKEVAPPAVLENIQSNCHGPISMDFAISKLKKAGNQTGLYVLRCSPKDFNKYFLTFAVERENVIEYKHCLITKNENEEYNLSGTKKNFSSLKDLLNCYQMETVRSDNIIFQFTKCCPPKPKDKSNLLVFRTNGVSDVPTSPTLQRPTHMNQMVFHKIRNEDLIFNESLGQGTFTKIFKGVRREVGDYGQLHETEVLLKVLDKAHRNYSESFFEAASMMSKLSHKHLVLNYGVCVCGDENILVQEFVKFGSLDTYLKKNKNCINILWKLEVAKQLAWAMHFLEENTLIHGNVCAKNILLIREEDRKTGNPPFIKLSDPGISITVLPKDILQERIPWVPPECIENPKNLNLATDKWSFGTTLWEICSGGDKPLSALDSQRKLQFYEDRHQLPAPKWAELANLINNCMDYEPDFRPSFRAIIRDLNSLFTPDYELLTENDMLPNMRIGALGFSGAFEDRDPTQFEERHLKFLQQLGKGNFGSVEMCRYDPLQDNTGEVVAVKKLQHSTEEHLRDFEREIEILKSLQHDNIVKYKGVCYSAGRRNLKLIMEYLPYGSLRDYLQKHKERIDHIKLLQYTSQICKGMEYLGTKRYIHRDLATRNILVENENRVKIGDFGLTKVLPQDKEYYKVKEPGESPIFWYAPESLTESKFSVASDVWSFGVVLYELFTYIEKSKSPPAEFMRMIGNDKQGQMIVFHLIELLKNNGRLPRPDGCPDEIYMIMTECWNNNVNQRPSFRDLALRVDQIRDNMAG
assayReadout: phosphorylation enrichment
Enter a number only.

Below are worked cases with known answers.
residueString	targetSystem	phosphorylation enrichment
NDHHVYLEGTL [ALDOB_Y223]	Jak2 (UniProt O60674)	0.662
IDDLEYLHSQG [STK11_Y166_G163D]	Jak2 (UniProt O60674)	0.865
SFCFRYRCAAQ [SUMF1_Y344_R349Q_YF]	Jak2 (UniProt O60674)	0.745
TIMTNYNPNFC [ALK_Y1092_D1091N_YF]	Jak2 (UniProt O60674)	0.865

Short answer for YVPSFYHAFSG [ACTN4_Y265_S262P] : phosphorylation enrichment was 0.794

Short answer for DFFDLYGGKKF [PTPN11_Y66_E69K_YF] : phosphorylation enrichment was 0.974

Short answer for SARFHYLMAEK [LDHB_Y173_R172H] : phosphorylation enrichment was 0.455

Short answer for ASRKFYAMKIL [AKT3_Y174_G171R_YF] : phosphorylation enrichment was 0.7

Short answer for NLMPAYYKCIQ [CYP21A2_Y190] : phosphorylation enrichment was 1.34

====

tested on: c-Abl (mouse); assay: phosphorylation enrichment, bacterial display (enrichment ratio); higher = better substrate or ligand; peptides without Tyr show the background
assayReadout: phosphorylation enrichment
Enter a number only.

residueString	targetSystem	assayReadout	endpointResult
VREIRCQGGNR [VWF_Y1570_Y1570C]	c-Abl (mouse)	phosphorylation enrichment	0.675

Short answer for GYCSWYRGWAP [TIMP3_Y195] : phosphorylation enrichment was 1.04

Short answer for CHRQLYHKCTH [F12_Y58_Y53C] : phosphorylation enrichment was 0.599

Short answer for GVTLLCYGRYN [ADGRD1_Y85_Y85C] : phosphorylation enrichment was 0.975

====

target: EPHB1 (UniProt P54762); experiment: phosphorylation enrichment, bacterial display (enrichment ratio); higher = better substrate or ligand; peptides without Tyr show the background
assayReadout: phosphorylation enrichment
Enter a number only.

Below are worked cases with known answers.
residueString	targetSystem	phosphorylation enrichment
TKDTFYQQPMF [GBA_Y451_K452Q]	EPHB1 (UniProt P54762)	0.583
SVMAEYGLFGA [VSX2_Y219_YF]	EPHB1 (UniProt P54762)	0.477
PMQMPYDSRWE [PDGFRA_Y582_L580M]	EPHB1 (UniProt P54762)	0.835
RYMELYDLNRD [BBS2_Y648]	EPHB1 (UniProt P54762)	1.52
SLDLSYYTTSS [EMD_Y181_P183T]	EPHB1 (UniProt P54762)	0.596

Tested system EPHB1 (UniProt P54762); phosphorylation enrichment recorded for IFETDYFQKGG [INSR_Y1189_R1191Q_YF] was 0.421

Tested system EPHB1 (UniProt P54762); phosphorylation enrichment recorded for HLVLNYGVCFC [JAK2_Y613_V617F] was 1.67
